// provenance: patent US20250313626A1

target: T1, human CD200R1 isoform a on CHOK1 cells (CHOK1/hCD200R1a) (human, UniProt Q8TD46 25-348)
T1 construct: also called CHOK1/CD200R1a
T1 sequence: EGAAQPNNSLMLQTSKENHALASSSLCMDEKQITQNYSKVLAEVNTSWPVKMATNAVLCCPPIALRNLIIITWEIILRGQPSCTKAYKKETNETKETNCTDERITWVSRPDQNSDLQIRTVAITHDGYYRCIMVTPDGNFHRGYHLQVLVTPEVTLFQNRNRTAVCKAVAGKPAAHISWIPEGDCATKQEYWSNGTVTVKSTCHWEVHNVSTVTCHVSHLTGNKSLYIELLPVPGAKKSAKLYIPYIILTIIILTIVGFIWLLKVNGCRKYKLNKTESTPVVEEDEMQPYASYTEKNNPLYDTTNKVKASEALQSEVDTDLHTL
assay notes: flow cytometry, CHOK1/hCD200R1a cells (FITC-Mean); table beside the curves, head without unit, x axis Log [Ab] (nM)
metric name: EC50

binder	result
PR007974 (antibody, human IgG1, kappa, V domains shown, PTM variant of PR006839 (human IgG1)) VH: QVQLVESGGGVVQPGRSLRLSCAASGFTFSYYGFHWVRQAPGKGLEWLGLIWSDARHKDYADSVKGRFTISRDNSKNTLYLQMNSLRAEDTAVYYCARDRIVGEGFDYWGQGTLVTVSS VL: DIVMTQSPLSLPVTPGEPASISCRSSQSLLHRSGYNYLDWYLQKPGQSPQLLIYLGSYRASGVPDRFSGSGSGTDFTLKISRVEAEDVGVYYCQQGIQTTYTFGQGTKLEIKR	0.277 nM
